System: MERTK phosphorylation in 697 ALL cells
experiment.notes: pMERTK assay
cond: read-out: IC50 (MERTK phosphorylation); 697 ALL cells, 1 hour; 95% confidence interval = 16–52 nM
quantity.name: IC50 (nM)
Supply the numeric figure in nM, leaving out any unit text.

Give IC50 (MERTK phosphorylation in 697 ALL cells) of the following compound: CC(C)C(=O)Nc1ccnc(C#Cc2ccc(Nc3ncc(-c4ccccn4)c(NC4CCC(O)CC4)n3)cc2)c1 (stereo not shown)
28
